Ref: ChEMBL document CHEMBL1150387

Biological target: Mitogen-activated protein kinase 9 (Homo sapiens)
Experiment: Inhibition of JNK2 at 10 uM by HTRF assay relative to control
assayReadout: inhibition (%)

Example compounds with recorded inhibition:
| compound | quantityUnit | inhibition |
| --- | --- | --- |
| Cc1cccc(Nc2ncnc3c2CN(C(=O)c2ccc(N(C)C)c4ccccc24)CC3)c1 | % | 1 |
| O=C(c1nc(SCc2ccc(Cl)cc2)n2ccccc12)N1CCN(c2ncnc3c2CN(Cc2ccccc2)CC3)CC1 | % | 1 |
| Cc1cccc(N(C)c2cc(Nc3cccc(C(=O)N(C)CCc4ccccn4)c3)ncn2)c1 | % | 4 |

P = COc1cccc(Nc2cc(N3CCC[C@H]3C(=O)NCCN3CCCCC3)nc(N)n2)c1
Q = CN(CCCn1ccnc1)C(=O)[C@@H]1CCCN1c1nccc(Nc2ccccc2)n1
R = CN(C)CC(C)(C)CNC(=O)C1CCN(c2cc(N3CCOCC3)nc(N)n2)CC1
-- ask Put the items in order so that reported inhibition rises from first to last. List the labels in the requested order.
-- reply R, P, Q
(R: 1%, P: 3%, Q: 6%)

I = CN(C)c1ccc(C(=O)N2CCN(c3ncnc4c3CN(Cc3ccccc3)CC4)CC2)c2ccccc12
II = Cc1cccc(N(C)c2cc(N3CCN(C(=O)Cc4c[nH]c5ccccc45)CC3)ncn2)c1
-- ask Parameter metric = inhibition. Return the lower-valued option from I and II . Write down the label of the entry you select.
-- reply I

A = O=C(C1CCN(c2nccc(Nc3ccccc3)n2)CC1)N1CC[C@@H](O)C1
B = COc1ccc(NC(=O)Cc2ccc(Nc3cc(N(C)c4cccc(C)c4)ncn3)cc2)cn1
-- ask Between A and B , whose recorded inhibition is greater? Write down the label of the entry you select.
-- reply A

I = O=C(NCc1ccncc1)c1cccc(Nc2cc(Nc3cccc(Br)c3)ncn2)c1
II = COC[C@@H]1CCCN1C(=O)[C@@H]1CCCN1c1nccc(Nc2ccccc2)n1
III = Cc1cccc(N(C)c2cc(Nc3cccc(C(=O)NCc4ccncc4)c3)ncn2)c1
-- ask Please list these compounds in decreasing order of inhibition. List the labels in the requested order.
-- reply I, III, II
(I: 38%, III: 21%, II: 4%)
